assay: self-splicing fitness, log relative to wild type (ln ratio); higher = more splicing; Tetrahymena group I intron in knt gene, E. coli kanamycin selection, DiMSum; sequences stand for … in CUCUCU…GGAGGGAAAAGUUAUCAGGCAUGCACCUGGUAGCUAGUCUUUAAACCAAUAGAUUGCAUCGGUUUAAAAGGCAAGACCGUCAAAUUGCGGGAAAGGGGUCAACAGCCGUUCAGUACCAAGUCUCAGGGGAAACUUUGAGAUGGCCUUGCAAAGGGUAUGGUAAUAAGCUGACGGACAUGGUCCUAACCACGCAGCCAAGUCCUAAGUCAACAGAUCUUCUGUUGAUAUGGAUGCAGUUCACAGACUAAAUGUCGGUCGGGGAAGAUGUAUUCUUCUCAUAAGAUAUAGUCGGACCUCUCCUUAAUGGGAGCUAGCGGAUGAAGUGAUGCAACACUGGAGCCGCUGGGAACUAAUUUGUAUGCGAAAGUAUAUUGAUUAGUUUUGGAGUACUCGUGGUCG; settings: 30 °C;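 further: selection with 25 µg/mL kanamycin versus none on LB agar overnight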
I would appreciate it if you labelled entries true when self-splicing fitness (ln) is -2 or higher, otherwise false.

# Sequence data, Cat
measured = [
    ("CACGAGCAAUAUUACGGUGU", "false"),
    ("AAGCAGCAAUAUUACGCGUA", "true"),
    ("CACGAGCAAUAUUACGUUUA", "false"),
    ("UGCUAGCAAUAUUACGCUCA", "true"),
    ("GAAUAGCAAUAUUACGGAGC", "false"),
]

Determine whether measured self-splicing fitness (ln) meets or exceeds -2 for CCCCAGCAAUAUUACGGGUC
false

Subsequent entry: UAACAGCAAUAUUACGGCCC
false

Subsequent entry: UCAUAGCAAUAUUACGUAGG
true

Subsequent entry: CAAUAGCAAUAUUACGGUCG
true

Subsequent entry: CGCGAGCAAUAUUACGAUAC
false

Subsequent entry: CUACAGCAAUAUUACGUCUC
false

Subsequent entry: UCACAGCAAUAUUACGGGCU
false

Subsequent entry: CCUGAGCAAUAUUACGUCCU
false

Subsequent entry: UCAGAGCAAUAUUACGUGAG
true
